# Tested on: HeLa
# protocol.text: Cytotoxicity against human HeLa cells expressing luciferase-based DENV-2 protease reporter system assessed as reduction in cell viability by celltiter-blue assay
# Type: toxicity
Reported CC50 is given for each of the following compounds.

>>> df
                                test_smiles  study_system  assay_endpoint    result
0  O=C(Nc1ccc2c(c1)B(O)OC2)c1ccc(OCc2ccc(Cl)cc2)cc1          HeLa            CC50   > 50 µM
1  Cc1cccc(COc2cccc(C(=O)Nc3ccc4c(c3)B(O)OC4)c2)c1          HeLa            CC50   72.6 µM
2                            OB1OCc2ccccc21          HeLa            CC50  > 100 µM

# next compound below
CC50 reported for this compound N#Cc1ccc(CNc2ccc3c(c2)B(O)OC3)cc1 : > 100 µM
